Target: Streptokinase A (Streptococcus pyogenes serotype M1, UniProt P10520)
Sequence (P10520 whole entry): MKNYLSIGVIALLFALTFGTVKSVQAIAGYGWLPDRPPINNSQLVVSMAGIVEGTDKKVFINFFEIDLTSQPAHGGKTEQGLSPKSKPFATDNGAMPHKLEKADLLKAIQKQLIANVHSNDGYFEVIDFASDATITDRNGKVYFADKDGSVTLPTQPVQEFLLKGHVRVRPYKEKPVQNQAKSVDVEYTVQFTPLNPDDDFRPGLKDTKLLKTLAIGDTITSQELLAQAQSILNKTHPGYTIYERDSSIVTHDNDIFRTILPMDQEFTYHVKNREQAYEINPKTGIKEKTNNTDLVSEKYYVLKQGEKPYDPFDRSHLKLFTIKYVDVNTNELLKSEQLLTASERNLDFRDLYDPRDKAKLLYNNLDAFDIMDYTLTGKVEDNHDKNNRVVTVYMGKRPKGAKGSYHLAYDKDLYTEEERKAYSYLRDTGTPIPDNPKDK
Test: S. pyogenes streptokinase expression inhibitors, potency, dose response, plasminogen activation absorbance, OD405 (AID 1914);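 further: secreted streptokinase activity via plasminogen activation per viability signal from cell pellet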
Format: functional, Streptococcus pyogenes M1 GAS
Activity calls are given as the source filed them. No stated cut-off is given here; in the data, actives have a measured EC50 and inactives only a lower limit.
Could you please report measured EC50 for the items listed next?

Item under review: `COc1cccc(NC(=O)NCCCCc2ccccc2)c1` . Reported EC50?
106 µM (active)

Item under review: `Sc1nnc(-c2cc(-c3ccccc3)[nH]n2)n1/N=C/c1ccc(Cl)cc1` . Reported EC50?
> 150 µM (not active)

Item under review: Cc1cccc(C(=O)NC(C(=O)Nc2nc(-c3ccccn3)cs2)C(C)C)c1 (centres undefined) . Reported EC50?
> 150 µM (not active)

Item under review: `COc1ccc(-c2csc(NC(=S)NC(=O)c3cccs3)n2)cc1OC` . Reported EC50?
> 150 µM (not active)

Item under review: CCC(C)COC(=O)C(C#N)c1nc2ccccc2nc1N1CCCCC1 (centres undefined) . Reported EC50?
> 150 µM (not active)

Item under review: `COc1cc(-c2c(C#N)c(N)nc3c2c(C)nn3-c2ccc(C)c(C)c2)cc(OC)c1OC` . Reported EC50?
> 150 µM (not active)

Item under review: `N#C/C(=N\Nc1ccc(S(=O)(=O)N2CCCCCC2)cc1)C(N)=S` . Reported EC50?
> 150 µM (not active)

Item under review: `Cc1cccc(C(=O)N[C@H](C(=O)OCc2cc(=O)n3c(n2)sc2ccccc23)C(C)C)c1` . Reported EC50?
> 150 µM (not active)

Item under review: `CCOC(=O)c1ccc(Nc2nc(C)nc3c2nnn3Cc2ccccc2)cc1` . Reported EC50?
> 150 µM (not active)

Item under review: `Cc1ccc(NNC(=O)C2CCC2)cc1C` . Reported EC50?
> 150 µM (not active)

Item under review: `O=S(=O)(Nc1cccc2ncccc12)c1cccs1` . Reported EC50?
> 150 µM (not active)

Item under review: CCC(C)Nc1nc(N)c([N+](=O)[O-])c(Nc2cc(OC)ccc2OC)n1 (centres undefined) . Reported EC50?
> 150 µM (not active)

Item under review: `O=c1c2cc(-c3ccccc3)sc2nc2n1CCC2` . Reported EC50?
> 150 µM (not active)

Item under review: `CCc1ccccc1NC(=S)NCCSc1ccc(Cl)cc1` . Reported EC50?
30.5 µM (active)

Item under review: `O=C(C1CCCCC1)N1CCC(c2nc(O)c3nnn(Cc4c(F)cccc4Cl)c3n2)CC1` . Reported EC50?
> 150 µM (not active)

Item under review: `c1ccc(-c2nnc(-c3ccccn3)nc2NC2CCCCC2)cc1` . Reported EC50?
> 50 µM (not active)

Item under review: Cc1cc(C(=O)NCC(=O)OC(C(=O)Nc2cc(C(F)(F)F)ccc2Cl)c2ccccc2)ccc1[N+](=O)[O-] (centres undefined) . Reported EC50?
> 150 µM (not active)

Item under review: `CC(=O)O[C@H]1C[C@@]2(C)[C@@H](C[C@@H](O)[C@H]3[C@@]4(C)CC[C@@H](O)[C@@H](C)[C@@H]4CC[C@@]32C)/C1=C(\CCC=C(C)C)C(=O)O` . Reported EC50?
0.362 µM (active)

Item under review: `COc1ccc(Br)cc1[C@H]1[C@@H]2C=CCC[C@@]2(C)C(=O)N1Cc1ccccc1` . Reported EC50?
37.6 µM (active)

Item under review: `O=C(COC(=O)Cc1cn2ccsc2n1)Nc1nc2ccccc2s1` . Reported EC50?
> 150 µM (not active)

Item under review: `Cc1cc(N2CCC(C)CC2)nc(-n2nc(C)cc2C)n1` . Reported EC50?
> 150 µM (not active)

Item under review: `CC(=O)C(=NNc1cccc(Cl)c1)Nc1ccc(Cl)cc1Cl` . Reported EC50?
2.72 µM (active)

Item under review: `CCOC(=O)c1sc2nc(Cc3ccc(Cl)cc3)[nH]c(=S)c2c1C` . Reported EC50?
> 150 µM (not active)

Item under review: `O=C(CCS(=O)(=O)c1ccccc1)Nc1nc2cc3c(cc2s1)OCCO3` . Reported EC50?
> 150 µM (not active)
